Here, each record is paired with measured viability, T/C data.
Tested on: 885512-296-R-J2-PDC complex spheroid growth, % test/control;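 also: spheroids exposed to compounds for seven days; 100% = DMSO vehicle control wells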
Test: Anticancer human tumor 885512-296-R-J2-PDC patient-derived breast carcinoma cell line growth inhibition [Asc]
Settings: second compound 10 µM; first compound 0.316 µM; active compounds read low
Answer with a number only, understood to be in %.

Compound: CNC(C)C(=O)NC1CN(S(=O)(=O)c2cccc(S(=O)(=O)N3CCC4CCC(C(=O)NC(c5ccccc5)c5ccccc5)N4C(=O)C(NC(=O)C(C)NC)C3)c2)CCC2CCC(C(=O)NC(c3ccccc3)c3ccccc3)N2C1=O (configuration not stated) + Cc1c(S(C)(=O)=O)c(-c2cc(F)cc(N3CCN(c4ccc(NS(=O)(=O)c5ccc(NC(CCN6CCC(C(=O)OCCCP(=O)(O)O)CC6)CSc6ccccc6)c(S(=O)(=O)C(F)(F)F)c5)cc4)CC3)c2)c(-c2ccc(Cl)cc2)n1C(C)C
Study target: 885512-296-R-J2-PDC complex spheroid growth, % test/control;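 also: spheroids exposed to compounds for seven days; 100% = DMSO vehicle control wells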
Measurement units: %
Recorded value: 100

--- query ---
Requested read-out: viability, T/C. Entry: C#Cc1c(F)ccc2cc(O)cc(-c3ncc4c(N5CC6CCC(C5)N6)nc(OCC56CCCN5CC(F)C6)nc4c3F)c12 (configuration not stated) + Cc1c(S(C)(=O)=O)c(-c2cc(F)cc(N3CCN(c4ccc(NS(=O)(=O)c5ccc(NC(CCN6CCC(C(=O)OCCCP(=O)(O)O)CC6)CSc6ccccc6)c(S(=O)(=O)C(F)(F)F)c5)cc4)CC3)c2)c(-c2ccc(Cl)cc2)n1C(C)C 101
